test system: CP329; assay: qHTS profiling for inhibitors of Plasmodium falciparum proliferation (AID 504749); also: nearly all actives have a fitted effect of over 60% in size; settings: P. falciparum in erythrocytes, SYBR Green DNA, 72 h; series mostly up to 28.7 µM
Results filed as inconclusive are left out. The source made the active and inactive calls. Calls follow the shape of the dose curve; as a rule, active = well fitted inhibition curve with a large enough effect; inconclusive = small, poorly fitted or top-dose-only effect; inactive = flat fitted curve, though single readings scatter. Square brackets hold non-standard residues; d marks the D form. Peptide text beside a SMILES is read from it. Orn = NCCC[CH](N)C(=O)O
Answer with one of the outcomes active, inactive

| MOLECULE | LABEL_VALUE |
| --- | --- |
| C=CC1=C(C(=O)O)N2C(=O)[C@@H](NC(=O)C(N=O)c3csc(N)n3)[C@H]2SC1 (stereo partly specified) | inactive |
| CNCC(=O)NC(CCCN=C(N)N)C(=O)NC(C(=O)NC(Cc1ccc(O)cc1)C(=O)NC(C(=O)NC(Cc1cnc[nH]1)C(=O)N1CCCC1C(=O)NC(C)C(=O)O)C(C)C)C(C)C (stereo unspecified) | inactive |
| CCC(Oc1ccccc1)C(=O)NC1C(=O)N2C1SC(C)(C)C2C(=O)O (stereo unspecified) | inactive |
| CC(C)CC1NC(=O)C(CCCN)NC(=O)C(C(C)C)NC(=O)C2CCCN2C(=O)C(Cc2ccccc2)NC(=O)C(CC(C)C)NC(=O)C(CCCN)NC(=O)C(C(C)C)NC(=O)C2CCCN2C(=O)C(Cc2ccccc2)NC1=O (stereo unspecified) (cyclo(FPV[Orn]LFPV[Orn]L); configuration not given here) | active |
| CC(=O)OCC(=O)[C@@]1(O)CCC2C3CCC4=CC(=O)CC[C@]4(C)C3=CC[C@@]21C (stereo partly specified) | inactive |

Input: Hello, I am checking results. What call was entered for CC(C)C(NC(=O)C(CC(=O)O)NC(=O)C(CCCCN)NC(=O)C(N)CCCN=C(N)N)C(=O)NC(Cc1ccc(O)cc1)C(=O)O (stereo unspecified) (H-RKDVY-OH; configuration not given here) ?
Output: inactive

====

target: Retinoic acid receptor RXR-alpha (Homo sapiens) (UniProt P19793); assay: qHTS assay for small molecule agonists of retinoid X receptor alpha signaling (AID 588544); conditions: HEK293T RXRa-UAS-bla, beta-lactamase reporter, 18 h; series mostly up to 76.7 µM
Sequence (P19793 whole entry, looked up): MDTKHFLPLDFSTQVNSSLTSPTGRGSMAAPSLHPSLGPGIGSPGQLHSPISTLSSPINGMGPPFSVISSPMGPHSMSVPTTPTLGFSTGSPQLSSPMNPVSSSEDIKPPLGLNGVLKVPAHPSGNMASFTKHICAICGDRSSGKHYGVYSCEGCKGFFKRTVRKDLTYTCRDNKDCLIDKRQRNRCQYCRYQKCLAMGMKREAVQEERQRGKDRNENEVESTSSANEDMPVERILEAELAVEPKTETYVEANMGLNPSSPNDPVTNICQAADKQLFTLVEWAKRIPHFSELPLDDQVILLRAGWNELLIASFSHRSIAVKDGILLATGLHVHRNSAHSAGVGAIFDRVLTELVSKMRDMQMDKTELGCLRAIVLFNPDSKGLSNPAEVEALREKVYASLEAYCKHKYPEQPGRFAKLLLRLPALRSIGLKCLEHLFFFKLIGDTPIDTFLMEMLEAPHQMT
Inconclusive results are not listed. The source made the active and inactive calls. Calls follow the shape of the full dose curve.
ATTRIBUTE_MEASURED: outcome

Field: example entries. Status: answers known.
| MOLECULE | TEST_TARGET | outcome |
| --- | --- | --- |
| CCNc1nc(N)nc(Cl)n1 | Retinoic acid receptor RXR-alpha (Homo sapiens) (UniProt P19793) | inactive |
| OCc1cccc(Oc2ccccc2)c1 | Retinoic acid receptor RXR-alpha (Homo sapiens) (UniProt P19793) | inactive |
| O=c1oc(=O)c2cc3c(=O)oc(=O)c3cc12 | Retinoic acid receptor RXR-alpha (Homo sapiens) (UniProt P19793) | inactive |
| COC(=O)c1ccccc1C(=O)O | Retinoic acid receptor RXR-alpha (Homo sapiens) (UniProt P19793) | inactive |
| C=C[Si](OCCOC)(OCCOC)OCCOC | Retinoic acid receptor RXR-alpha (Homo sapiens) (UniProt P19793) | inactive |
| COC(=O)c1ccc(C(=O)OC)cc1 | Retinoic acid receptor RXR-alpha (Homo sapiens) (UniProt P19793) | inactive |

Input: Any idea what outcome was measured for COC(=O)c1c(Cl)nn(C)c1S(=O)(=O)NC(=O)Nc1nc(OC)cc(OC)n1 ?
Output: inactive

Input: Return reported outcome; argument: O=C=NCCCCCCN=C=O
Output: inactive

Input: Using the record for Cc1cc(C)c(N)c(Cl)c1 , report its outcome.
Output: inactive

Input: Fill blank: measured outcome of the molecule CC(=O)N(CCN(C(C)=O)C(C)=O)C(C)=O is ____.
Output: inactive

Input: # get_value(readout='outcome', item= CCSC(=O)N(CC(C)C)CC(C)C )
Output: inactive

Input: Please look up its outcome: O=C(OCC1CCC2OC2C1)C1CCC2OC2C1 (stereo not drawn)
Output: inactive

Input: Quick one: outcome for C=C(C)C(=O)OCCCCCCCCCCCC ?
Output: inactive

Input: Suppose we examine the molecule CC(=O)CC(=O)Nc1ccccc1C ; what outcome value has been reported?
Output: inactive

Input: Which measured outcome value corresponds to OCCC(F)(F)C(F)(F)C(F)(F)C(F)(F)C(F)(F)C(F)(F)C(F)(F)C(F)(F)F ?
Output: inactive

Input: Could you tell me which outcome is on file for CCOC(=O)CCCCCCCCC(=O)OCC ?
Output: inactive

Input: Suppose we examine the molecule CCNc1nc(NC(C)CC)nc(OC)n1 (stereo not drawn) ; what outcome value has been reported?
Output: inactive

Input: I'd like to know its outcome. The molecule in question is C[C@]12CCC(=O)C=C1CC[C@@H]1[C@@H]2[C@@H](O)C[C@]2(C=O)[C@@H](C(=O)CO)CC[C@@H]12
Output: inactive

Input: Recorded outcome of Cn1c(=O)[nH]c(=O)n(C2CCCCC2)c1=O , please.
Output: inactive

Input: Value lookup for outcome; key = CSc1ccc(Cl)cc1
Output: inactive

Input: Record request: outcome value, item CC(=O)/C=C/C1C(C)=CCCC1(C)C (stereo not drawn)
Output: inactive

Input: So what's the measured outcome for this one? OCC(CO)(CO)COCC(CO)(CO)CO
Output: inactive

Input: Tell me the measured outcome of CC(C)CCCCOC(=O)c1ccccc1C(=O)OCCCCC(C)C , please.
Output: inactive

Input: Name the recorded outcome for O=C(O)CCCCCCC(=O)O .
Output: inactive

Input: Please report the recorded outcome for CC(=O)OC(C)(C)C1CC=C(C)CC1 (stereo not drawn) .
Output: inactive
